GI50: recorded values
System: SK-MEL-5
Assay info: NCI tumour cell line growth inhibition, 48 h
Active and inactive are the calls of the source. No stated cut-off is given here; in the data, active = GI50 up to about 1.1 µM and inactive = higher.

Ask: Please tell me: GI50 of C=C(C1=CC(=O)C(C)(C)O1)[C@@H]1CC=C([C@@H]2CC[C@H]3[C@@]2(C)CC[C@H]2C(C)(C)C(=O)[C@H](OC(=O)CC(C)(O)CC(=O)O)C[C@]32C)[C@H](O)O1 (stereo not given in full) , system SK-MEL-5?
Reply: 12.5 µM (inactive)

Ask: Please tell me: GI50 of CC(C)(C)CI , system SK-MEL-5?
Reply: 16.9 µM (inactive)

Ask: Please tell me: GI50 of O=C1c2cc([N+](=O)[O-])ccc2-c2cccc(F)c21 , system SK-MEL-5?
Reply: 70.6 µM (inactive)

New cases:
Ask: Please tell me: GI50 of CCNC1=C(NC(=O)c2ccccc2)C(=O)c2ccccc2C1=O , system SK-MEL-5?
Reply: > 10 µM (inactive)

Ask: Please tell me: GI50 of Cn1c2cc(Cl)ccc2c2ccc3c(c21)C(=O)C=CC3=O , system SK-MEL-5?
Reply: 39.8 µM (inactive)

Ask: Please tell me: GI50 of CC1=C(C)C2(C#N)C(=O)N3C(=NC(c4ccccc4)NC3c3ccccc3)C2(C#N)C(c2ccccc2)N1 (stereo not given) , system SK-MEL-5?
Reply: > 100 µM (inactive)

Ask: Please tell me: GI50 of COc1c(C)c(C/C=C(\C)CCCCO)c(OC)c(OC)c1OC , system SK-MEL-5?
Reply: 88.7 µM (inactive)

Ask: Please tell me: GI50 of CC(C)C(=O)NC(=S)Nc1ccc([N+](=O)[O-])cc1C#N , system SK-MEL-5?
Reply: > 100 µM (inactive)

Ask: Please tell me: GI50 of C1=C\CCCCN2C[C@H]3CCCC/C=C\CCCCN4CC[C@@H]([C@H](CCCCCC/1)C4)[C@H](C3)C2 , system SK-MEL-5?
Reply: 1.61 µM (inactive)
